Test target: RSK1 domain2 (Homo sapiens (Human))
Sequence (Q15418 whole entry, the tested form may be a part): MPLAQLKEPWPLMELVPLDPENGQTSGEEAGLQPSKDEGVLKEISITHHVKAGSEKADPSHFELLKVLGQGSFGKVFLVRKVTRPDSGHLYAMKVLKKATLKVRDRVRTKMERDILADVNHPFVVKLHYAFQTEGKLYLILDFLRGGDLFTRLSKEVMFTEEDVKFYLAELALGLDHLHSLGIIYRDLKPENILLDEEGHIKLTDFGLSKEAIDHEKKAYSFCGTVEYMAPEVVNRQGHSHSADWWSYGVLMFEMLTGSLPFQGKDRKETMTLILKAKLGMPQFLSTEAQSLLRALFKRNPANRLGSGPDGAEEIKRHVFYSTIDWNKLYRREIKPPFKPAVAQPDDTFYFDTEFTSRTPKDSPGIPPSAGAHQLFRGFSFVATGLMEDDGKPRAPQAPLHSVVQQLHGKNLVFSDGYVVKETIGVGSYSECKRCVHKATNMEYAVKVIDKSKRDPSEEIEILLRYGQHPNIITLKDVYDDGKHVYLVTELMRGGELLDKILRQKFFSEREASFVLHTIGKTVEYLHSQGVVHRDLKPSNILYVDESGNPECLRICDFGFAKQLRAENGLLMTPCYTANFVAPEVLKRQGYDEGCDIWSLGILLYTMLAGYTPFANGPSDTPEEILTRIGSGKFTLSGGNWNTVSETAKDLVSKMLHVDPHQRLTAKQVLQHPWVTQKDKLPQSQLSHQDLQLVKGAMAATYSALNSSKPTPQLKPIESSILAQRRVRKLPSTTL
Measurement description: KiNativ assay
Format: binding
Measurement parameters: H929 live cell, read-out: inhibition (10 μM)
Experimental readout: inhibition at 10 µM

Some compounds with known inhibition at 10 µM results, for comparison:
COc1cc(NS(=O)(=O)C2CC2)ccc1-c1cnc(N)c(-c2ccc3c(c2)CCNC3=O)c1	1%
Nc1ncc(-c2ccc(NS(=O)(=O)C3CC3)cc2F)cc1-c1ccc2c(c1)CCNC2=O	11%
Nc1ncc(-c2cccc3ncsc23)cc1-c1ccc2c(c1)CCNC2=O	-7.7%
CN(C1CC1)S(=O)(=O)c1ccc(-c2cnc(N)c(-c3ccc4c(c3)CCNC4=O)c2)c(F)c1	3.8%
Nc1ncc(-c2cccc([N+](=O)[O-])c2F)cc1-c1ccc2c(c1)CCNC2=O	1%

Proceeding to the next compound to report its inhibition at 10 µM.
Name the reported inhibition at 10 µM value associated with the compound Nc1ncc(-c2ccc(NS(=O)(=O)C3CC3)cc2OC2CCCCC2)cc1-c1ccc2c(c1)CCNC2=O
-0.7%

----------
Test target: CDK7 (Homo sapiens (Human))
Sequence (P50613 whole entry): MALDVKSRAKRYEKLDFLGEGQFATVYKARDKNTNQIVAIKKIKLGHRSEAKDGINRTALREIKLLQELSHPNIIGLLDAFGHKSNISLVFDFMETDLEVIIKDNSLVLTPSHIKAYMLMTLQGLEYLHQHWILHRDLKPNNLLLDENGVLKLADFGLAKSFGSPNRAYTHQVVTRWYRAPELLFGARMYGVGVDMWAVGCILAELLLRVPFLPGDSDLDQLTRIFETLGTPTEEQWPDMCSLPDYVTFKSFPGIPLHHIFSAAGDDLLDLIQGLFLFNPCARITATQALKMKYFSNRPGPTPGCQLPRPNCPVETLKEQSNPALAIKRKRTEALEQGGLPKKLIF
Sequence (P51946 whole entry partner): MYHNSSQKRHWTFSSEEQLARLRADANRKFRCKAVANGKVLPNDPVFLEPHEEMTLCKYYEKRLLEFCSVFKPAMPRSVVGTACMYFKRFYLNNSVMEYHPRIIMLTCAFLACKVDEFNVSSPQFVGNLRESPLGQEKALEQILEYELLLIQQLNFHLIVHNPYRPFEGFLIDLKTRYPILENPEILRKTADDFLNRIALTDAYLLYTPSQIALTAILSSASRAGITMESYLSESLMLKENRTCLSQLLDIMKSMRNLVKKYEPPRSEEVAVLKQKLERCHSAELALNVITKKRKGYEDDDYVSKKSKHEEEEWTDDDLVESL
Sequence (P51948 whole entry partner): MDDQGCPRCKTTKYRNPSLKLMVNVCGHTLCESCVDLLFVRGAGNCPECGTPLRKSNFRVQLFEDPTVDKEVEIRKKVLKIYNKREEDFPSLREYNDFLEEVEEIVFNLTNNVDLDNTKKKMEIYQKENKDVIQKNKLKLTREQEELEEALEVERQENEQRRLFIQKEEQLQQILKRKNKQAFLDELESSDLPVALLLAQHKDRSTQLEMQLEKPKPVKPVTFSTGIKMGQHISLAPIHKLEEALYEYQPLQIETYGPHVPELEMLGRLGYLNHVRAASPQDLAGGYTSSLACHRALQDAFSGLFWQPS
Measurement description: KiNativ assay
Assay type: binding
Measurement parameters: H929 live cell, read-out: inhibition (10 μM)
Experimental readout: inhibition at 10 µM (%)
Your answer is read as %, so omit the unit and give the number.

Nc1ncc(-c2cccc3ncsc23)cc1-c1ccc2c(c1)CCNC2=O	32.9
CN(C1CC1)S(=O)(=O)c1ccc(-c2cnc(N)c(-c3ccc4c(c3)CCNC4=O)c2)c(F)c1	12.3
Nc1ncc(-c2cccc([N+](=O)[O-])c2F)cc1-c1ccc2c(c1)CCNC2=O	78.2

What is its inhibition at 10 µM for CDK7 (Homo sapiens (Human))? Entry: Nc1ncc(-c2ccc(NS(=O)(=O)C3CC3)cc2F)cc1-c1ccc2c(c1)CCNC2=O
17.4

// same read-out, input: Nc1ncc(-c2ccc(NS(=O)(=O)C3CC3)cc2OC2CCCCC2)cc1-c1ccc2c(c1)CCNC2=O
29.9

// same read-out, input: COc1cc(NS(=O)(=O)C2CC2)ccc1-c1cnc(N)c(-c2ccc3c(c2)CCNC3=O)c1
19.4

----------
Test target: UniProtKB O75385
Measurement description: KiNativ assay
Type: binding
Measurement parameters: H929 live cell, read-out: inhibition (10 μM)
Decision: inhibition at 10 µM compared against -20%; not below it gives Y, below it gives N.

Would you please look over these solved cases?
Nc1ncc(-c2ccc(NS(=O)(=O)C3CC3)cc2OC2CCCCC2)cc1-c1ccc2c(c1)CCNC2=O [Compound I-65]	Y
Nc1ncc(-c2cccc3ncsc23)cc1-c1ccc2c(c1)CCNC2=O [Compound I-13]	N
Nc1ncc(-c2ccc(NS(=O)(=O)C3CC3)cc2F)cc1-c1ccc2c(c1)CCNC2=O [Compound I-51]	Y

Given the entry COc1cc(NS(=O)(=O)C2CC2)ccc1-c1cnc(N)c(-c2ccc3c(c2)CCNC3=O)c1 [Compound I-50] , answer whether its inhibition at 10 µM meets or surpasses -20%.
Y

// same read-out, input: CN(C1CC1)S(=O)(=O)c1ccc(-c2cnc(N)c(-c3ccc4c(c3)CCNC4=O)c2)c(F)c1 [Compound I-28]
N

----------
Test target: JAK1 domain2 (Homo sapiens (Human))
Sequence (P23458 whole entry, the tested form may be a part): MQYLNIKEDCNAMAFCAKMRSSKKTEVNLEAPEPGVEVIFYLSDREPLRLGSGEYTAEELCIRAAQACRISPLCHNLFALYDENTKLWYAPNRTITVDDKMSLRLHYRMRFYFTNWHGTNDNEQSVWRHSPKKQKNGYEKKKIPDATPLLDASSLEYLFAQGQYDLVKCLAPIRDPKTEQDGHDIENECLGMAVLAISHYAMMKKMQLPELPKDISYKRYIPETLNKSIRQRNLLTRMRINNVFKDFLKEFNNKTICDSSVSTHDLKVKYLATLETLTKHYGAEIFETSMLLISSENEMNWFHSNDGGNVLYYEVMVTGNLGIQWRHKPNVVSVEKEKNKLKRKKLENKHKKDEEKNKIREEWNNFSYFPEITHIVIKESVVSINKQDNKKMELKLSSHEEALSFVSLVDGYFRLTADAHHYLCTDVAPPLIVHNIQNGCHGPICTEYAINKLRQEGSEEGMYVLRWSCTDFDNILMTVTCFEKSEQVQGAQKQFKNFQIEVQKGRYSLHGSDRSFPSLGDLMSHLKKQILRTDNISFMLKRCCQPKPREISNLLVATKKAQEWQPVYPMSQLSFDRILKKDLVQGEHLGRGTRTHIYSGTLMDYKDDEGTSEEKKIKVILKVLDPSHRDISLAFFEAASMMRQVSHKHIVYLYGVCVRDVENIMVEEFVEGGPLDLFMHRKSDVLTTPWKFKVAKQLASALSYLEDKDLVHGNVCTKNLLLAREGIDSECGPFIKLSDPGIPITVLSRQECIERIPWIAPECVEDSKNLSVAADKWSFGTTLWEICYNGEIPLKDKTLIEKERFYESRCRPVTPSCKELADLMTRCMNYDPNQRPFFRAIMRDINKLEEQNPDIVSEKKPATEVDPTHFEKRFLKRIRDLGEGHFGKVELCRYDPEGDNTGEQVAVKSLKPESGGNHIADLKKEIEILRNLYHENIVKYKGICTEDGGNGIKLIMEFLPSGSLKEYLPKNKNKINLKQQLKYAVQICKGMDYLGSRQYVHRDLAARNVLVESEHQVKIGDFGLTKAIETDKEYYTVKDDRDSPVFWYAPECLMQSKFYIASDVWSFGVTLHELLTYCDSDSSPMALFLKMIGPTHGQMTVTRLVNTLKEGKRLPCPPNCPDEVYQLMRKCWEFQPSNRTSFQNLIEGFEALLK
Measurement description: KiNativ assay
Format: binding
Measurement parameters: H929 live cell, read-out: inhibition (10 μM)
Procedure: Biochemical IC50s of the compounds of the present disclosure against various kinases were measured in a KiNativ assay. Compounds were screened in duplicate at 10 μM in H929 live cell. IC50 was measured via Mass spectroscopy (MS).
Experimental readout: inhibition at 10 µM (%)
Your answer is read as %, so omit the unit and give the number.

Some compounds with known inhibition at 10 µM results, for comparison:
CN(C1CC1)S(=O)(=O)c1ccc(-c2cnc(N)c(-c3ccc4c(c3)CCNC4=O)c2)c(F)c1	-33.7
Nc1ncc(-c2cccc([N+](=O)[O-])c2F)cc1-c1ccc2c(c1)CCNC2=O	-4.9
Nc1ncc(-c2ccc(NS(=O)(=O)C3CC3)cc2F)cc1-c1ccc2c(c1)CCNC2=O	-6.4
Nc1ncc(-c2ccc(NS(=O)(=O)C3CC3)cc2OC2CCCCC2)cc1-c1ccc2c(c1)CCNC2=O	10.1
Nc1ncc(-c2cccc3ncsc23)cc1-c1ccc2c(c1)CCNC2=O	-16

Name the reported inhibition at 10 µM value associated with the compound COc1cc(NS(=O)(=O)C2CC2)ccc1-c1cnc(N)c(-c2ccc3c(c2)CCNC3=O)c1
-23.3

----------
Test target: IRAK4 (Homo sapiens (Human), UniProt Q9NWZ3)
Sequence (Q9NWZ3 whole entry): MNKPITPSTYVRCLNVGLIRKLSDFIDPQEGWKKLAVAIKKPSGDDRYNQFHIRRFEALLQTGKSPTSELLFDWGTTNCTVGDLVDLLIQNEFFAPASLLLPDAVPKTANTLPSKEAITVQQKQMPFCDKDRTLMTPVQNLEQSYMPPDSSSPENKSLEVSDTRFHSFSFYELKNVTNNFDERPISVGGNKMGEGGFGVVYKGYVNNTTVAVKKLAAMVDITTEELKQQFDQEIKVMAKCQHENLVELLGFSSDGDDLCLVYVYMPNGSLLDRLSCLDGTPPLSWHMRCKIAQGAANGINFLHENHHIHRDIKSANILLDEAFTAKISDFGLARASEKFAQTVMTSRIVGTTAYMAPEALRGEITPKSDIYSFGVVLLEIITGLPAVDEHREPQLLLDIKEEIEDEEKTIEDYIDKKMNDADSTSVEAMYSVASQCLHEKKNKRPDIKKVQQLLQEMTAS
Measurement description: KiNativ assay
Type: binding
Measurement parameters: H929 live cell, read-out: inhibition (10 μM)
Experimental readout: inhibition at 10 µM (%)
Your answer is read as %, so omit the unit and give the number.

Some compounds with known inhibition at 10 µM results, for comparison:
COc1cc(NS(=O)(=O)C2CC2)ccc1-c1cnc(N)c(-c2ccc3c(c2)CCNC3=O)c1 [Compound I-50]	19.6
Nc1ncc(-c2ccc(NS(=O)(=O)C3CC3)cc2OC2CCCCC2)cc1-c1ccc2c(c1)CCNC2=O [Compound I-65]	32.9

Proceeding to the next compound to report its inhibition at 10 µM.
Name the reported inhibition at 10 µM value associated with the compound Nc1ncc(-c2cccc3ncsc23)cc1-c1ccc2c(c1)CCNC2=O [Compound I-13]
-6.4

----------
Test target: TAO2 (Homo sapiens (Human), UniProt Q9UL54)
Sequence (Q9UL54 whole entry): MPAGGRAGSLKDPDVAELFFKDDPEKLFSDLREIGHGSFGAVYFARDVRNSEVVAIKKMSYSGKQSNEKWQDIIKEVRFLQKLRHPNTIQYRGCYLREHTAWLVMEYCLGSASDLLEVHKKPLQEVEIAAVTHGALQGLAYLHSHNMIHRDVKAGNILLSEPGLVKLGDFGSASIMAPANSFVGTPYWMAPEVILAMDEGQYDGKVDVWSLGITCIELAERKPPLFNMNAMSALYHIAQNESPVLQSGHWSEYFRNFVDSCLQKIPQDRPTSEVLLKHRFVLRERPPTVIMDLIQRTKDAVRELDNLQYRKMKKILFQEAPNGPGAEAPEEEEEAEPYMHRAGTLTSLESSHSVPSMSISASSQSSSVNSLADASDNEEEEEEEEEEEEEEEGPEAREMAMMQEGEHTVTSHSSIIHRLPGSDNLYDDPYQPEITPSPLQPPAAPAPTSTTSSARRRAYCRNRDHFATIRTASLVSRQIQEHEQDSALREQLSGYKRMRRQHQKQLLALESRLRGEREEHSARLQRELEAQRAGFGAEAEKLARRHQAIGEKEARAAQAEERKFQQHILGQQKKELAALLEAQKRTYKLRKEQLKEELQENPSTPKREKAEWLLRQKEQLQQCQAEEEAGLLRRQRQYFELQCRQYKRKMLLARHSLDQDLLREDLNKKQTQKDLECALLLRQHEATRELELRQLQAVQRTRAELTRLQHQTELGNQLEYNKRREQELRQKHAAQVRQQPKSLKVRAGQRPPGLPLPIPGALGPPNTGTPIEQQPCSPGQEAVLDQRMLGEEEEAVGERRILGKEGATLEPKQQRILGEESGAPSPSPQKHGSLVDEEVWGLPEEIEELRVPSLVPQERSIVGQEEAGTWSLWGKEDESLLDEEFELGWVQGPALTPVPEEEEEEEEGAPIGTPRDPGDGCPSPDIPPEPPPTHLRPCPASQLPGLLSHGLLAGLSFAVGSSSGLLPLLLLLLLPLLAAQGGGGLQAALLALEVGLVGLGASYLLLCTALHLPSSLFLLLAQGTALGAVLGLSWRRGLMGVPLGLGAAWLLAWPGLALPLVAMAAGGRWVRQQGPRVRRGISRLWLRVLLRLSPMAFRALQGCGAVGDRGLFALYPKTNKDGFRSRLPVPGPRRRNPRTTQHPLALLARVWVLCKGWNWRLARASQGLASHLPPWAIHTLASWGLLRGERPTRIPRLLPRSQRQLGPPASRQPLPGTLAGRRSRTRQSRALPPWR
Measurement description: KiNativ assay
Format: binding
Measurement parameters: H929 live cell, read-out: inhibition (10 μM)
Decision: inhibition at 10 µM compared against 40%; not below it gives label 1, below it gives label 0.

Would you please look over these solved cases?
Nc1ncc(-c2cccc([N+](=O)[O-])c2F)cc1-c1ccc2c(c1)CCNC2=O	label 0
COc1cc(NS(=O)(=O)C2CC2)ccc1-c1cnc(N)c(-c2ccc3c(c2)CCNC3=O)c1	label 0
Nc1ncc(-c2ccc(NS(=O)(=O)C3CC3)cc2OC2CCCCC2)cc1-c1ccc2c(c1)CCNC2=O	label 0
Nc1ncc(-c2cccc3ncsc23)cc1-c1ccc2c(c1)CCNC2=O	label 0

Then there is this compound:
Given the entry CN(C1CC1)S(=O)(=O)c1ccc(-c2cnc(N)c(-c3ccc4c(c3)CCNC4=O)c2)c(F)c1 , answer whether its inhibition at 10 µM meets or surpasses 40%.
label 1

----------
Test target: IRAK1 (Homo sapiens (Human))
Measurement description: KiNativ assay
Type: binding
Measurement parameters: H929 live cell, read-out: inhibition (10 μM)
Decision: inhibition at 10 µM compared against 50%; not below it gives MET, below it gives NOT MET.

Would you please look over these solved cases?
Nc1ncc(-c2cccc3ncsc23)cc1-c1ccc2c(c1)CCNC2=O [Compound I-13]	NOT MET
Nc1ncc(-c2ccc(NS(=O)(=O)C3CC3)cc2F)cc1-c1ccc2c(c1)CCNC2=O [Compound I-51]	MET
CN(C1CC1)S(=O)(=O)c1ccc(-c2cnc(N)c(-c3ccc4c(c3)CCNC4=O)c2)c(F)c1 [Compound I-28]	MET
Nc1ncc(-c2cccc([N+](=O)[O-])c2F)cc1-c1ccc2c(c1)CCNC2=O [Compound I-9]	MET

Then there is this compound:
Given the entry Nc1ncc(-c2ccc(NS(=O)(=O)C3CC3)cc2OC2CCCCC2)cc1-c1ccc2c(c1)CCNC2=O [Compound I-65] , answer whether its inhibition at 10 µM meets or surpasses 50%.
NOT MET

----------
Listed compounds paired with reported inhibition at 10 µM
Test target: PIP4K2C (Homo sapiens (Human))
Measurement description: KiNativ assay
Type: binding
Measurement parameters: H929 live cell, read-out: inhibition (10 μM)
Your answer is read as %, so omit the unit and give the number.

CN(C1CC1)S(=O)(=O)c1ccc(-c2cnc(N)c(-c3ccc4c(c3)CCNC4=O)c2)c(F)c1	11.8
Nc1ncc(-c2ccc(NS(=O)(=O)C3CC3)cc2F)cc1-c1ccc2c(c1)CCNC2=O	85.4
Nc1ncc(-c2cccc3ncsc23)cc1-c1ccc2c(c1)CCNC2=O	42
Nc1ncc(-c2cccc([N+](=O)[O-])c2F)cc1-c1ccc2c(c1)CCNC2=O	65.7
Nc1ncc(-c2ccc(NS(=O)(=O)C3CC3)cc2OC2CCCCC2)cc1-c1ccc2c(c1)CCNC2=O	90.2

Proceeding to the next compound to report its inhibition at 10 µM.
Name the reported inhibition at 10 µM value associated with the compound COc1cc(NS(=O)(=O)C2CC2)ccc1-c1cnc(N)c(-c2ccc3c(c2)CCNC3=O)c1
90.6

----------
Listed compounds paired with reported inhibition at 10 µM
Test target: MAP3K5 (Homo sapiens (Human), UniProt Q99683)
Measurement description: KiNativ assay
Format: binding
Measurement parameters: H929 live cell, read-out: inhibition (10 μM)
Your answer is read as %, so omit the unit and give the number.

Some compounds with known inhibition at 10 µM results, for comparison:
Nc1ncc(-c2ccc(NS(=O)(=O)C3CC3)cc2F)cc1-c1ccc2c(c1)CCNC2=O	16.3
Nc1ncc(-c2cccc3ncsc23)cc1-c1ccc2c(c1)CCNC2=O	25.6
CN(C1CC1)S(=O)(=O)c1ccc(-c2cnc(N)c(-c3ccc4c(c3)CCNC4=O)c2)c(F)c1	-6.2
Nc1ncc(-c2ccc(NS(=O)(=O)C3CC3)cc2OC2CCCCC2)cc1-c1ccc2c(c1)CCNC2=O	-12.4
COc1cc(NS(=O)(=O)C2CC2)ccc1-c1cnc(N)c(-c2ccc3c(c2)CCNC3=O)c1	27.5

Name the reported inhibition at 10 µM value associated with the compound Nc1ncc(-c2cccc([N+](=O)[O-])c2F)cc1-c1ccc2c(c1)CCNC2=O
30.6
